These measurements were taken from patent US20250171438A1.

Molecular target: human PAH with the R408W mutation (Homo sapiens, UniProt P00439, R408W)
Construct: expressed in transfected cells
Experiment: Cell Based Phenylalanine Flux Assay
Settings: A375 cells expressing human R408W PAH; 24 hrs compound incubation; 13C-Tyrosine by LC-MS; average where tested multiple times; read-out: AC50
compounds and their reported AC50

Compound | AC50
O=C(c1ncn2ccccc12)N1CCc2[nH]cnc2[C@H]1c1nc2cccc(F)c2s1 [Example 1268] | < 500 nM
CC(C)(O)c1nc(C2CC2)c(C(=O)N2CCc3[nH]cnc3[C@H]2c2nc3c(F)cccc3s2)o1 [Example 1537] | < 500 nM
O=C(c1ocnc1C(F)(F)F)N1CCc2[nH]cnc2[C@H]1c1nc2c(F)cccc2s1 [Example 1493] | < 500 nM
O=C(c1cn(-c2ccccn2)nc1Cl)N1CCc2[nH]cnc2[C@@H]1c1nc2c(F)cccc2s1 [Example 1770] | 1000 to 5000 nM
Cc1csc(C(=O)N2CCc3[nH]cnc3[C@H]2c2nc3ccccc3s2)n1 [Example 1044] | 1000 to 5000 nM
O=C(c1oc(C2(O)CC2)nc1C(F)F)N1CCc2[nH]cnc2[C@@H]1c1nc2ccccc2s1 [Example 2056] | 1000 to 5000 nM
CC(C)(O)c1nc(C(F)F)c(C(=O)N2CCc3[nH]cnc3[C@H]2c2nc3c(F)cccc3s2)o1 [Example 1773] | < 500 nM

* * *

Listed below: AC50 values for each entry.
Molecular target: human PAH with the R408W mutation (Homo sapiens, UniProt P00439, R408W)
Construct: expressed in transfected cells
Sequence (P00439 1-452 R408W): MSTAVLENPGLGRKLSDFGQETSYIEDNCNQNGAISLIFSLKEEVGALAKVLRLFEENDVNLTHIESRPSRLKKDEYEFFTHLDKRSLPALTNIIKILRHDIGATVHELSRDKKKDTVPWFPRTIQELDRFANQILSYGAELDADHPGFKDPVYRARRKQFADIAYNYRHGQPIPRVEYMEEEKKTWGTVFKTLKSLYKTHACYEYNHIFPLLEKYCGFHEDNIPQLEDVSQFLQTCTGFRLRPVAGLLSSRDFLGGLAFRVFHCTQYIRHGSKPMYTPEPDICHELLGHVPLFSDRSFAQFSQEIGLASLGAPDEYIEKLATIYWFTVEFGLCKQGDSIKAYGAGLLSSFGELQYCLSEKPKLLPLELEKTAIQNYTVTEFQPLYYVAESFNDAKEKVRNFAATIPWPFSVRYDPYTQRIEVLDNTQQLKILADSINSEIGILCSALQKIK
Assay: Cell Based Phenylalanine Flux Assay
Settings: A375 cells expressing human R408W PAH; 24 hrs compound incubation; 13C-Tyrosine by LC-MS; average where tested multiple times; read-out: AC50

Molecule | AC50
O=C(c1ncc(Cl)s1)N1CCc2[nH]cnc2[C@H]1c1nc2c(F)cccc2s1 [Example 1219] | < 500 nM
O=C(c1cnc(N2CCCC2)s1)N1CCc2[nH]cnc2[C@H]1c1nc2ccccc2s1 [Example 1323] | < 500 nM
O=C(c1cnn2ccccc12)N1CCc2[nH]cnc2[C@@H]1c1nc2c(Br)cccc2s1 [Example 1242] | > 5000 nM
O=C(c1nnc(-c2ccc(C(F)(F)F)cn2)o1)N1CCc2[nH]cnc2[C@@H]1c1nc2ccccc2s1 [Example 1829] | 1000 to 5000 nM
O=C(c1cnco1)N1CCc2[nH]cnc2[C@@H]1c1nc2cccc(F)c2s1 [Example 1248] | 1000 to 5000 nM
CC(=O)Cn1cc(C(=O)N2CCc3[nH]cnc3[C@H]2c2nc3c(F)cccc3s2)c(Cl)n1 [Example 1991] | < 500 nM
O=C(c1cnn2ccc(Br)cc12)N1CCc2[nH]cnc2[C@H]1c1nc2ccc(F)cc2s1 [Example 1137] | 500 to 1000 nM
O=C(c1oc(-c2ccccn2)nc1C(F)(F)F)N1CCCc2[nH]cnc2[C@@H]1c1nc2ccccc2s1 [Example 2122] | 1000 to 5000 nM

* * *

Biological target: human PAH with the R408W mutation (Homo sapiens, UniProt P00439, R408W)
Construct: expressed in transfected cells
Experiment: Cell Based Phenylalanine Flux Assay
Conditions: A375 cells expressing human R408W PAH; 24 hrs compound incubation; 13C-Tyrosine by LC-MS; average where tested multiple times; read-out: AC50
Measurement Type: AC50

Smiles Representation | Measurement Type | Recorded Value
O=C(c1cnn2c(Br)cccc12)N1CCc2[nH]cnc2[C@@H]1c1nc2ccccc2s1 | AC50 | 1000 to 5000 nM
O=C(CC1CC(F)(F)C1)N1CCc2[nH]cnc2[C@@H]1c1nc2ccccc2s1 | AC50 | 1000 to 5000 nM
CC(C)(O)c1nc(C#N)c(C(=O)N2CCc3[nH]cnc3[C@H]2c2nc3ccccc3s2)o1 | AC50 | 500 to 1000 nM
O=C(c1oc(N2CCC(F)CC2)nc1C(F)F)N1CCc2[nH]cnc2[C@H]1c1nc2ccccc2s1 | AC50 | < 500 nM
Cc1cccc2sc([C@@H]3c4nc[nH]c4CCN3C(=O)c3ocnc3C(F)F)nc12 | AC50 | < 500 nM
O=C(c1nncs1)N1CCc2[nH]cnc2[C@@H]1c1nc2cc(F)ccc2s1 | AC50 | 1000 to 5000 nM
CC(F)(F)c1ncc(C(=O)N2CCc3[nH]cnc3[C@H]2c2nc3c(F)cccc3s2)s1 | AC50 | < 500 nM
Cc1nc(C)c(C(=O)N2CCc3[nH]cnc3[C@H]2c2nc3ccccc3s2)s1 | AC50 | 500 to 1000 nM

* * *

Quick reference for AC50 among some compounds
Target: human PAH with the R408W mutation (Homo sapiens, UniProt P00439, R408W)
Construct: expressed in transfected cells
Sequence (P00439 1-452 R408W): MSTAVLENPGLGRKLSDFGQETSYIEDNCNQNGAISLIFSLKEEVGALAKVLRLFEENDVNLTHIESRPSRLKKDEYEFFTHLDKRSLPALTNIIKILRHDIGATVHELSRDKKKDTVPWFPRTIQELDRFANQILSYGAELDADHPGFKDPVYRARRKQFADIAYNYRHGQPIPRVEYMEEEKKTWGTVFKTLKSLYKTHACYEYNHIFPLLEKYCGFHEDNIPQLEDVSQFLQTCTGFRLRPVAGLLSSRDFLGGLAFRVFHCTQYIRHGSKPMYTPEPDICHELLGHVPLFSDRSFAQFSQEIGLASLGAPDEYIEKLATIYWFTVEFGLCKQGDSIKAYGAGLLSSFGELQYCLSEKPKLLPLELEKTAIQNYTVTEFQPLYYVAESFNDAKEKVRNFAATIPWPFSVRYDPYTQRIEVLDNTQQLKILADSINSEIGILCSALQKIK
Test: Cell Based Phenylalanine Flux Assay
Conditions: A375 cells expressing human R408W PAH; 24 hrs compound incubation; 13C-Tyrosine by LC-MS; average where tested multiple times; read-out: AC50
Measurement Type: AC50

Compound | Target Or Test System | Recorded Value
O=C(c1nc(Cl)cs1)N1CCc2[nH]cnc2[C@H]1c1nc2ccc(F)cc2s1 [Example 1142] | human PAH with the R408W mutation (Homo sapiens, UniProt P00439, R408W) | 500 to 1000 nM
Cn1ncnc1C(=O)N1CCc2[nH]cnc2[C@@H]1c1nc2ccccc2s1 [Example 1814] | human PAH with the R408W mutation (Homo sapiens, UniProt P00439, R408W) | > 5000 nM
CC(C)(O)c1nc(Cl)c(C(=O)N2CCc3[nH]cnc3[C@@H]2c2nc3ccccc3s2)o1 [Example 1964] | human PAH with the R408W mutation (Homo sapiens, UniProt P00439, R408W) | 1000 to 5000 nM
Nc1cc(C(=O)N2CCc3[nH]cnc3[C@H]2c2nc3c(F)cccc3s2)n(C(F)F)n1 [Example 2053] | human PAH with the R408W mutation (Homo sapiens, UniProt P00439, R408W) | 500 to 1000 nM

* * *

Target: human PAH with the R408W mutation (Homo sapiens, UniProt P00439, R408W)
Construct: expressed in transfected cells
Sequence (P00439 1-452 R408W): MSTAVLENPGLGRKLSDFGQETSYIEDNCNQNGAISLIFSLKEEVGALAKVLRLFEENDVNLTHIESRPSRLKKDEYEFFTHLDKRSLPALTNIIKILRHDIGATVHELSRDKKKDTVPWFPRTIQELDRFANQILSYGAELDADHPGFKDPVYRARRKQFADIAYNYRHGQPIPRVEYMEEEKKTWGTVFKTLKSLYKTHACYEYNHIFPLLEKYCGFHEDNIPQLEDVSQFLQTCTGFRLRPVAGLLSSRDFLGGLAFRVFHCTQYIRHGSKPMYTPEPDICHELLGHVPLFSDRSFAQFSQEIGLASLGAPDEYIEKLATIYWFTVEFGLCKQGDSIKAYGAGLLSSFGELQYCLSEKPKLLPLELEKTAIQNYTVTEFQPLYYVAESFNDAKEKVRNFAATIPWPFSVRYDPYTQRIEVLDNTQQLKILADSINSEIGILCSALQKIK
Experiment: Cell Based Phenylalanine Flux Assay
Conditions: A375 cells expressing human R408W PAH; 24 hrs with compound; 13C-Tyrosine by LC-MS; average where tested multiple times; read-out: AC50

Compound | AC50
O=C(c1nnc(CCC(F)(F)F)o1)N1CCc2[nH]cnc2C1c1nc2ccccc2s1 (stereo not shown) | 1 to 5 µM
Cc1nc(C=CC2CC2)oc1C(=O)N1CCCc2[nH]cnc2C1c1nc2ccccc2s1 (stereo not shown) | > 5 µM
O=C(c1nc2ccncc2s1)N1CCc2[nH]cnc2C1c1nc2ccccc2[nH]1 (stereo not shown) | > 5 µM
O=C(c1cn[nH]c1)N1CCc2[nH]cnc2C1c1nc2ccccc2s1 (stereo not shown) | 1 to 5 µM
CC(=O)N1CCc2[nH]cnc2C1c1nc2ccccc2[nH]1 (stereo not shown) | > 5 µM
O=C(c1cn[nH]c1)N1CCc2[nH]cnc2C1c1nc2ccccc2[nH]1 (stereo not shown) | > 5 µM
O=C(CC1CC1)N1CCc2[nH]cnc2C1c1nc2c(F)cccc2s1 (stereo not shown) | > 5 µM
O=C(c1cnn2cccc(F)c12)N1CCc2[nH]cnc2C1c1nc2ccc(Cl)cc2[nH]1 (stereo not shown) | > 5 µM
Cc1ccc2c(C(=O)N3CCc4[nH]cnc4[C@H]3c3nc4ccccc4[nH]3)cnn2c1 | 1 to 5 µM
O=C(c1ccno1)N1CCc2[nH]cnc2C1c1nc2ccc(F)cc2s1 (stereo not shown) | 1 to 5 µM
